# assay.overview: Clearance in human liver microsomes at 1 uM after 40 mins by HPLC-MS analysis
# Assay type: ADME, Microsome
# condition: read-out: CLH
measure.name: CLint scaled at 1 µM (mL/min/kg)

1) Cc1ccc(-n2nc(C(C)(C)C)cc2NC(=O)Nc2cc(-c3ccc4nccnc4c3)[nH]n2)cc1 :: 149
2) Cc1ccc(-n2nc(C(C)(C)C)cc2NC(=O)Nc2cc(-c3ccc(O)nn3)[nH]n2)cc1 :: 16
3) Cc1ccc(-n2nc(C(C)(C)C)cc2NC(=O)Nc2cccc3cc(C(=O)N(C)CCc4ccccn4)[nH]c23)cc1 :: 53
4) Cc1ccc(-n2nc(C(C)(C)C)cc2NC(=O)Nc2cc(-c3ccc4ncccc4c3)n[nH]2)cc1 :: 55
5) Cc1ccc(-n2nc(C(C)(C)C)cc2NC(=O)Nc2cc(-c3ccc4nccn4c3)[nH]n2)cc1 :: 44
6) Cc1ccc(-n2nc(C(C)(C)C)cc2NC(=O)Nc2cc(-c3ccc4c(c3)OCCO4)[nH]n2)cc1 :: 92
7) CCOCCCNC(=O)c1cc2cccc(NC(=O)Nc3cc(C(C)(C)C)nn3-c3ccc(C)cc3)c2[nH]1 :: 31
8) COc1ccc(-c2cc(NC(=O)Nc3cc(C(C)(C)C)nn3-c3ccc(C)cc3)n[nH]2)cn1 :: 48

* * *

# assay.overview: Clearance in human liver microsomes at 1 uM after 40 mins by HPLC-MS analysis
# Type: ADME, Microsome
# condition: read-out: CLH
Property: CLint scaled at 1 µM; scope: individual compounds
measure.name: CLint scaled at 1 µM (mL/min/kg)

1) Cc1ccc(-n2nc(C(C)(C)C)cc2NC(=O)Nc2cc(COc3cccnc3)n[nH]2)cc1 :: 109
2) Cc1ccc(-n2nc(C(C)(C)C)cc2NC(=O)Nc2cccc3cc(C(=O)NC(C)C)[nH]c23)cc1 :: 93
3) Cc1ccc(-n2nc(C(C)(C)C)cc2NC(=O)Nc2cc(-c3ccc(=O)n(C)c3)n[nH]2)cc1 :: 20
4) Cc1ccc(-n2nc(C(C)(C)C)cc2NC(=O)Nc2cc(-c3ccc(=O)[nH]c3)n[nH]2)cc1 :: 11.9
5) COc1ccc(-c2cc(NC(=O)Nc3cc(C(C)(C)C)nn3-c3ccc(C)cc3)n[nH]2)c(C)c1 :: 129
6) Cc1ccc(-n2nc(C(C)(C)C)cc2NC(=O)Nc2cccc3cc(C(=O)N4CCCC4)[nH]c23)cc1 :: 77
7) Cc1ccc(-n2nc(C(C)(C)C)cc2NC(=O)Nc2cccc3cc(C(=O)N4CCC5(CCNC5)C4)[nH]c23)cc1 (stereo not drawn) :: 53
8) CNC(=O)c1cc2cccc(NC(=O)Nc3cc(C(C)(C)C)nn3-c3ccc(C)cc3)c2[nH]1 :: 28

* * *

# assay.overview: Terminal elimination half life in Wistar Han rat at 100 mg/kg, po
# Format: ADME, organism-based
# Set-up: dose 100 mg/kg, route oral
# condition: in vivo, read-out: beta t1/2 (converted)
measure.name: half-life

1. Cc1ccc(-n2nc(C(C)(C)C)cc2NC(=O)Nc2cc(-c3ccc4nccnc4c3)[nH]n2)cc1 :: 7.3 h

* * *

# assay.overview: Lipophilicity, log D of the compound at pH 7.4
# Format: physicochemical
# condition: buffer
Threshold-based label: logD under 5 gives y, logD not under 5 gives n.

1. Cc1ccc(-n2nc(C(C)(C)C)cc2NC(=O)Nc2cc(-c3ccc(=O)n(C)c3)n[nH]2)cc1 :: y
2. Cc1ccc(-n2nc(C(C)(C)C)cc2NC(=O)Nc2cc(-c3ccc(=O)[nH]c3)n[nH]2)cc1 :: y
3. Cc1ccc(-n2nc(C(C)(C)C)cc2NC(=O)Nc2cc(-c3ccc4nccnc4c3)[nH]n2)cc1 :: y
4. Cc1ccc(-n2nc(C(C)(C)C)cc2NC(=O)Nc2cc(-c3ccc4ncccc4c3)n[nH]2)cc1 :: n
5. Cc1ccc(-n2nc(C(C)(C)C)cc2NC(=O)Nc2cc(-c3ccc4nccn4c3)[nH]n2)cc1 :: y
6. Cc1ccc(-n2nc(C(C)(C)C)cc2NC(=O)Nc2cccc3cc(C(=O)NC(C)C)[nH]c23)cc1 :: n

* * *

# assay.overview: Cmax in Wistar Han rat at 30 mg/kg, po
# Assay type: ADME, organism-based
# Parameters: dose 30 mg/kg, route oral
# condition: in vivo
Property: Cmax; scope: individual compounds
measure.name: Cmax (µM)

1) Cc1ccc(-n2nc(C(C)(C)C)cc2NC(=O)Nc2cccc3cc(C(=O)N(C)CCc4ccccn4)[nH]c23)cc1 :: 38.3
2) Cc1ccc(-n2nc(C(C)(C)C)cc2NC(=O)Nc2cc(-c3ccc4ncccc4c3)n[nH]2)cc1 :: 61.3
3) CCOCCCNC(=O)c1cc2cccc(NC(=O)Nc3cc(C(C)(C)C)nn3-c3ccc(C)cc3)c2[nH]1 :: 0.621
